Values from the supplement of paper PMC10126150

The entries below are paired with their reported switch fluorescence ratio.
# System: ATP;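 also: ATP exposure 15 min at 22 °C before imaging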
# assay: switch fluorescence ratio, 500 uM ATP over buffer (Cy3 cluster intensity, sum of 5 cycles each) (fold (ratio)); higher = stronger signal-on switching upon ATP binding; sequences stand for … in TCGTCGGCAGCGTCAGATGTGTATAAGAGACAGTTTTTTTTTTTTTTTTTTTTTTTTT…TC
# testSettings: aptamer strand: ATP DNA aptamer (quencher-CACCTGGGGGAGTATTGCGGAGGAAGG + anchor), 100 nM annealed; ATP concentration: 500 uM

sequenceData	switch fluorescence ratio
ATGGTTTATG	0.981
GGGGCGTTTT	0.998
TCGTTTACAC	1.01
TGGACGAATA	1.39
TTTTAAATGG	1.06
TTAGTTGA	0.999
TATCTTGCAT	0.97
TCTTAAGTGC	1.07
TTATGGAGTT	0.987
TGTGGTTGGT	1.01
GAATGACGGA	1.02
TTTGTACCGT	1.06
TCGACTCAGG	1.05
TGGTCAGCTA	1.02
TATGTTGGGT	1.02
ATTTTGGGGT	1
ACAATAAAAG	1.05
ACGACCGTTG	1.02
TTATGGCTTC	0.993
GATTCTATAG	0.988
GGCTCAGAGA	1

* * *

# System: ATP;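 also: ATP exposure 15 min at 22 °C before imaging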
# assay: switch fluorescence ratio, 500 uM ATP over buffer (Cy3 cluster intensity, sum of 5 cycles each) (fold (ratio)); higher = stronger signal-on switching upon ATP binding; sequences stand for … in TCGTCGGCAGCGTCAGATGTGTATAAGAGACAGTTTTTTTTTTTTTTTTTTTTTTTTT…TC
# testSettings: aptamer strand: ATP DNA aptamer (quencher-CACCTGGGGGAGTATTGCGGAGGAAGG + anchor), 100 nM annealed; ATP concentration: 500 uM

sequenceData	switch fluorescence ratio
AGGAGGACGT	0.964
AGCACATGTA	0.998
ATATATTAAA	0.981
CAGACCTCGT	1
ACGGGTGGGT	1.08
AGGAGGTGGT	1.04
TGATCATATT	1.02
GGAGTCGTTG	0.968
AGAATAGTCA	1
TTGTTCGCTT	1.03
AGACTATGTG	0.991
CGCTTACTTT	1.24
ACGATCCACG	1.04
TACGATTGGA	1.03
GGAGTCCGTT	1.02
CGGGGCAGCG	1.02
AGGGGTGGGG	1
ATTTAGACGT	0.974
TTTGTTAGGG	0.994
TTCCTAATTG	1.01

* * *

# Tested on: ATP;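 also: ATP exposure 15 min at 22 °C before imaging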
# assay: switch fluorescence ratio, 500 uM ATP over buffer (Cy3 cluster intensity, sum of 5 cycles each) (fold (ratio)); higher = stronger signal-on switching upon ATP binding; sequences stand for … in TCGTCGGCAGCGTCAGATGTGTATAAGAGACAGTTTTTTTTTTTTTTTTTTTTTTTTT…TC
# testSettings: aptamer strand: ATP DNA aptamer (quencher-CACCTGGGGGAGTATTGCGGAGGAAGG + anchor), 100 nM annealed; ATP concentration: 500 uM

sequenceData	switch fluorescence ratio
TTTTGCGAAC	1.94
TCGGCGTCAG	0.982
TAACCCGGGC	1.03
TAGATGGGGG	1
AAGATTGCTT	0.987
GGTCGATGAT	0.987
AGGTCAGTTT	0.989
CCGCGCACCG	1.73
CGCTACGTGG	0.99
GGCTGCTTTC	1.03

* * *

# Test system: ATP;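 also: ATP exposure 15 min at 22 °C before imaging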
# assay: switch fluorescence ratio, 500 uM ATP over buffer (Cy3 cluster intensity, sum of 5 cycles each) (fold (ratio)); higher = stronger signal-on switching upon ATP binding; sequences stand for … in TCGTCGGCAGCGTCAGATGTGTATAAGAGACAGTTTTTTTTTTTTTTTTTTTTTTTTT…TC
# testSettings: aptamer strand: ATP DNA aptamer (quencher-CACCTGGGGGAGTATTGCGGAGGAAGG + anchor), 100 nM annealed; ATP concentration: 500 uM
The entries below are paired with their reported switch fluorescence ratio.

sequenceData	subjectOfTest	switch fluorescence ratio
GATGAATGGA	ATP	0.959
AGGGTGTTGG	ATP	1
AATATGTGGT	ATP	0.972
TTGTTGCGTT	ATP	0.986
CCAATTGGTG	ATP	1.03
CGCACCACGA	ATP	1.21
GGTTCAATTG	ATP	1.03
CGAGTTTTCG	ATP	1
AATGGAGGAG	ATP	1.01
AATTAGGCGG	ATP	1.02
GTTTCGGTGG	ATP	0.986
TGTTGCAGTT	ATP	1.03
AAGAGGGGCG	ATP	1.02
GCGGGTCACC	ATP	0.992
GGCCCCCGGT	ATP	1.1
CTCAAGGGGC	ATP	1.14
GACAGCGGGG	ATP	0.999
AGCTGTAGTT	ATP	1
TGTGCGTGAG	ATP	0.978
GGGGCTGTGC	ATP	0.976

* * *

# Test system: ATP;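 also: ATP exposure 15 min at 22 °C before imaging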
# assay: switch fluorescence ratio, 500 uM ATP over buffer (Cy3 cluster intensity, sum of 5 cycles each) (fold (ratio)); higher = stronger signal-on switching upon ATP binding; sequences stand for … in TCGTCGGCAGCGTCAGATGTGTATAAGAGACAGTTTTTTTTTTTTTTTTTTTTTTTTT…TC
# testSettings: aptamer strand: ATP DNA aptamer (quencher-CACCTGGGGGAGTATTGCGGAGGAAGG + anchor), 100 nM annealed; ATP concentration: 500 uM
endpoint: switch fluorescence ratio

sequenceData	recordedResult
TTGCTGTGTG	1.01
GTGAGAATTT	1.05
GTTTTGAATT	1
CGCGGCGGGT	1.02
AGGTACTCGA	1.05
GGTACGTTGG	1.02
GTTGGAACAG	0.969
TAACAGGAAT	0.966
GGTGAACTTT	0.964
AGGCGGACGT	1
CCGCTGGGCT	1.83
GATGGGAAGT	1.01
CCACTGGGGG	1.04
GATTGGTATT	0.995
TATTAATCTT	1.02
CGTGTTGGG	1
CGTGTATGGG	1
GGGAGCCTTC	1.01
CGTTGCGGGG	0.975
GCTCTGGGGG	1.03
AAGTCCCAGC	0.995

* * *

# Test system: ATP;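 also: ATP exposure 15 min at 22 °C before imaging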
# assay: switch fluorescence ratio, 500 uM ATP over buffer (Cy3 cluster intensity, sum of 5 cycles each) (fold (ratio)); higher = stronger signal-on switching upon ATP binding; sequences stand for … in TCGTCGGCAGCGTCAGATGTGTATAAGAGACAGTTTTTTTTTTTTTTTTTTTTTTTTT…TC
# testSettings: aptamer strand: ATP DNA aptamer (quencher-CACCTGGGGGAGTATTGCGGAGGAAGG + anchor), 100 nM annealed; ATP concentration: 500 uM
endpoint: switch fluorescence ratio

sequenceData	recordedResult
AGAGTTGGGA	1.01
AATTCGTGTT	0.989
ATATTCGCGG	1.01
AGGGGGTAAG	0.988
CGGTACATTG	1
AGGGGGTCTT	1.01
TTTTTATGCG	0.999
TTGGAACATA	0.986
TAAAAGGGAA	1.01
GTAATAGAGA	1.01
CGGCTAGAAG	0.994
AAGTCGAAGT	0.986
TCTGGGTGGC	0.996
TATAGGGGTC	0.968
TGGGTTCTGA	0.98
ACCCGGATGG	1.01
CCTATACAAC	1.11
TTTAATTTTG	1
GATATAGGTT	1
GATATTAAAG	1.02
AGGGGGTAGG	0.978
TTGGGGTAGC	1.01
GGCGGCATCT	1.01
ATGGTTTTAG	0.993
ACGGCCACTG	1.07
GGGTTCCATT	1.02
CGTTGTATCT	1
AGCTGCTACG	0.996
CGTTGGGGT	0.986
TCACGAGTTT	1.01
AAAAAAGTGC	1.04
TTGTTTGCCT	1.04
CGGGTTAAAC	1
TAAAAAGACC	0.976
CGAGTATTTT	1.02
AGATAAGTTT	1.01
TACTACGTGC	1.28
AGTTTGGTGC	1.05
GAGTTTTGAG	1
TTCGTTATTG	1.02
TGATGGGGGT	1.04
AAAAGACCCT	1.04
ATGTAGGCAG	0.961

* * *

# System: ATP;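 also: ATP exposure 15 min at 22 °C before imaging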
# assay: switch fluorescence ratio, 500 uM ATP over buffer (Cy3 cluster intensity, sum of 5 cycles each) (fold (ratio)); higher = stronger signal-on switching upon ATP binding; sequences stand for … in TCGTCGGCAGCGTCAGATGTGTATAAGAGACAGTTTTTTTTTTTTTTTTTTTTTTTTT…TC
# testSettings: aptamer strand: ATP DNA aptamer (quencher-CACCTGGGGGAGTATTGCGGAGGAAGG + anchor), 100 nM annealed; ATP concentration: 500 uM
endpoint: switch fluorescence ratio

sequenceData	recordedResult
TCTGAGATAA	1.02
AGAGCGGGGT	0.998
ATGAATTGGT	1.01
TGGGCAAGTT	1.04
AGGAGTGTCA	0.965
AATATGGGGG	1.01
TTTACCAGGG	1.13
TCACAGCTGG	1.04
CAAAAATGGC	1.02
AAGTTTTATC	0.989
GGGGTCGGCC	0.995
AAGGAATGCA	0.993
ATGTGTATGG	0.998
AGGGGAGAGT	1
CTTTATGTCT	1
CCTTATGGCG	0.996
AGGTTAAAAT	1.03
TACTCGTGGT	1
TCAGCAGGTT	2.85
TCCGAAGGTA	1.07
